Could you please report measured Binding Score for the items listed next?
biological target: T1, Soluble CTLA-4-Ig (human, UniProt P16410 36-161, FITC-conjugated in the two-colour FACS assays; unlabelled and detected with FITC goat anti-human IgG in the concentration-dependent assay); assay: two-colour FACS profile on transfected cells; score of preference for CTLA-4-Ig over CD28-Ig vs WT hB7-1
T1 construct: extracellular domain; Bought from R&D Systems; also called sCTLA-4-Ig; CTLA-4-Ig Fc; not shown: Fc portion of human IgG1
T1 sequence (P16410 36-161): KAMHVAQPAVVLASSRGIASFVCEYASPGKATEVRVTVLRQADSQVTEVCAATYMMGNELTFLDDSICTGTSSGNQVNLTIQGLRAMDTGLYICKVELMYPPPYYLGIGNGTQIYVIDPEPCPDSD
Answer using only a numeral; do not append any unit.

Please fill in: Binding Score reported for Round 2 CTLA4BP 5x3-c3 (ligand) VIHMTKEVKEVATLSCGPNVSVEELAQTRIYWQKEKKMVLTMMSGDMNIWPEYKNRTIFDITNNLSIVILALRPSDEGTYECVVLKYEKDAFKREHLAEVTLSVKADFPTPSISDFEIPTSNIRRIICSTSGGFPEPHLSWLENGEELNAINTTVSQDPGTELYTVSSKLDFNMTTNHSFMCLIKYGHLRVNQTFNWNTPKQEHFPDNLLPSWAITLISVNGIFVICCLTHCFAPRCRERRRNERLRRESVCPV = 1

Please fill in: Binding Score reported for Round 2 CTLA4BP-5x2-11d (ligand) VIHVTKEVKEVATLSCGHNVSVEELAQTRIHWQKEKKMVLTMMSGDMNIWPEYKNRTIFDITNNLSIVILALRPSDEGTYECVVLKYEKDAFKREHLAEVMLSVKADFPTPSITDFEIPPSNIRRIICSTSGGFPEPHLFWLENGEELNAINTTVSQDPETELYTVSSKLDFNMTTDRSFVCLIKYGHLRVNQTFNWNTPKQEHFPDNLLPSWAITLISANGIFVICCLTYCFAPRCRERKSNETLRRESVRPV = 2

Please fill in: Binding Score reported for Round 2 CTLA4BP 2x4-h11 (ligand) VIHVTKEVKEVATLSCGHNVSVEELAQTRIYWQKEKKMVLTMMSGDMNIWPEYKNRTIFDITNNLSIVILALRPSDEGTYECVVLEYEKDAFKREHLAEVMLSVKADFPTPSISDFEIPPSNIRRIICSTSGGFPEPHLSWLENGEELNAINTTVSQDPGTELYAVSSKLDFNMTTNHSFMCLIKYGHLRVNQTFNWNTPKQEHFPDNLLPSWAITLISVNGIFVICCLAYCFAPRCRGRRRNERLRRESVRPV = 0

Please fill in: Binding Score reported for Round 2 CTLA4 A-G8-1 (ligand) ITPKSVTKRVKETVMLSCDYNTSTEELTSLRIYWQKDSKMVLAILPGKVQVWPEYKNRTITDMNDNPRIVILALPLSDSGTYTCVIQKPDLKGAYKLEHLTSVRLMIRADFPVPTINDLGNPSPNIRRLICSTSGGFPRPHLYWLENGEELNATNTTLSQDPETKLYMISSELDFNMTSNHSFLCLVKYGDLTVSQTFYWQESKPTPSANQHLTWTIIIPVSAFGISVIIAVILTCLTCRNAAIRRQRRENEVEMQSCSQSP = 1

Please fill in: Binding Score reported for Round 2 CTLA4BP-5X2-12F (ligand) VIHVTKEVKEVATLSCGHNVSVEELAQTRIHWQKEKKMVLTMMSGDMNIWPEYKNRTIFDITNNLSIVILALRPSDEGTYECVVLKYEKDAFKREHLAEVTLSVKADFPTPSITDFEIPPSNIKRIICSTSGGFPEPHLSWLENGEELNAINTTVSQDPETELYTVSSKLDFNMTTNHSFMCLIKYGHLRVNQTFNWNTPKQEHFPDNPLPSWAITLISANGIFVICCLTYCFAPRCRERRRNETLRRESVRPV = 1

Please fill in: Binding Score reported for Round 2 CTLA4BP 2x3-h2 (ligand) VIHVTKEVKEVATLSCGHNVSVEELAQTRIYWQKEKKMVLTMMSGDMNIWPEYKNRTIFDITNNLSIVILALRPSDEGTYECVVLKYEKDAFKREHLAEVMLSVKADFPTPSISDFEIPPSNIRRIICSTPGGFPEPRLAWMEDGEELNAISTTVSQDPGTELYAVSSKLDFNMTTNHSFMCLIKYGHLRVNQTFNWNTTKQEHFPDNLLPSWAITLISVKGIFVICCLTYCFAPRWRERKSNERLRRESVRPV = 0

Please fill in: Binding Score reported for Round 2 CTLA4BP 2x1-b12 (ligand) VIHMTKEVKEVATLSCGHNVSVEELAQTRIYWQKEKKMVLTMMSGDMNIWPEYKNRTIFDITNNLSIVILALRPSDEGTYECVALKYEKDAFKQEHLAEVTLSVKADFPTPSISDFEIPPSNIRRIICSTSGGFPEPRLAWMEDGEELNAINTTVSQDPETELYTVSSKLDFNMTANHSFMCLIKYGHLRVNQTFNWNTPKQEHFPDNLLPSWAITLISVNGIFVICCLTYCFAPRCRERRRNERLRRESVCPV = 1

Please fill in: Binding Score reported for Round 2 CTLA4BP-5x3-11b (ligand) VIHVTKEVKEVATLSCGHNVSVEELAQTRIYWQKEKKMVLTMMSGDMNIWPEYKNRTIFDITNNLSIVILALRSSDEGTYECVVLKYEKDAFKREHLAEVTLSVKADFPTPSITDFEIPPSNIRRIICSTSGGFPEPHLSWLENGEELNAISTTVSQDPETELYTVSSKLDFNMTTNRSFVCLIKYGHLRVNQTFNWNTPKQEHFPDNLLPSWAITLISVNGIFVICCLTYCFAPRCRERRSNERLRRESVRPV = 1

Please fill in: Binding Score reported for Round 2 CTLA4 A-H4-5* (ligand) ITPKSVTKRVKETVMLSCDYSTSTEELTSLRIYWQKDSKMVLAILPGKVQVWPEYKNRTITDMNDNPRIVILALRLSDKGTYTCVVQKNENGSFRREHLTSVTLSIRADFPVPSITDIGHPAPNVKRIRCSASGGFPEPRLYWLENGEELNATNTTVSQDPGTELYMISSELDFNVTNNHSIVCLIKYGELSVSQIFPWSKPKQEPPIDQLPFWVIIPVSGALVLTAVVLYCLACRHVARWKRTRRNEETVGTERLSPIYLGSAQSSG = 1
